We begin with a simple list: items and their reported Ratio IC50.
# Test system: HL-60
# EXPERIMENTAL PROTOCOL: Ratio of IC50 for human HL60 cells to IC50 for human HL60/MX2 cells
# Assay type: functional
Could you respond with only the numeric value?

Please review the entries below; each comes with its answer.
CCOC(=O)CC1C(C(=O)OCC)=C(N)Oc2ccc(-c3cc(OC)cc(OC)c3)cc21 (racemic) = 4.41
CCOC(=O)CC1C(C(=O)OCC)=C(N)Oc2ccc(-c3ccc(OC)c(OC)c3)cc21 (racemic) = 3.77
CCCOC(=O)CC1C(C(=O)OCCC)=C(N)Oc2ccc(-c3cc(OC)cc(OC)c3)cc21 (racemic) = 1.97
CCCCOC(=O)CC1C(C(=O)OCCCC)=C(N)Oc2ccc(-c3cc(OC)cc(OC)c3)cc21 (racemic) = 2
CCOC(=O)C1=C(N)Oc2ccc(-c3ccccc3)cc2C1C(=O)N1CCOCC1 (racemic) = 2.44
CCOC(=O)CC1C(C(=O)OCC)=C(N)Oc2ccc(-c3ccccc3OC)cc21 (racemic) = 4.28
CCOC(=O)CC1C(C(=O)OCC)=C(N)Oc2ccc(-c3ccc(OC)cc3)cc21 (racemic) = 4.41

Shifting focus to the molecule that follows.
Just so you know, measured Ratio IC50 for CCOC(=O)CC1C(C(=O)OCC)=C(N)Oc2ccc(-c3cc(OC)cc(OC)c3)cc21 (single isomer, unassigned; (+)) came out at 3.8

From: ChEMBL document CHEMBL1817624
